Entries and their polymerase ribozyme fitness (log ratio)
B1: TPR 5TU (parent)
chain: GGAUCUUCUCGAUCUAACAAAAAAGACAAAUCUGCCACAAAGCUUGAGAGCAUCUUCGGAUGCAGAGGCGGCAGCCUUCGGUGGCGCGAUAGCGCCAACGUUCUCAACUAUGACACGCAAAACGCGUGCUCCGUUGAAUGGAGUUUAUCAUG

variants of: B1; experiment: polymerase ribozyme fitness, log enrichment relative to wild type (log ratio); higher = more active; in vitro selection for triplet polymerase activity
Variants at the floor of the assay were thinned out.

| mutations | relation_qualifier | polymerase ribozyme fitness (log ratio) |
| --- | --- | --- |
| G11A A29U U82G C87A G94C C96U A98G A122C G141A | ≤ | -4.2 |
| C18U U55A | = | -1.49 |
| G83C U148G G152A | = | -3.67 |
| A29C C54A G70U | ≤ | -4.2 |
| C54A G70U G94A | = | -4.02 |
